For each record, write down the corresponding MRT.
- Assay method text: Mean residence time in monkeys
- Format: ADME, organism-based
- Recorded conditions: simiiformes, in vivo

Lookup: Answer with the recorded MRT for the compound listed here: Cc1nc[n+]([O-])c(C)c1C(=O)N1CCC(C)(N2CCC(N(c3ccccc3)c3ccccc3)CC2)CC1
Found: 5.1 h

Lookup: Answer with the recorded MRT for the compound listed here: Cc1cccc(C)c1C(=O)N1CCC(C)(N2CCC(N(Cc3ccccc3)c3ccccc3)CC2)CC1
Found: 4.1 h

###

- Assay method text: AUC in monkeys at a dose of […] mg/kg
- Assay type: ADME, organism-based, Plasma
- Recorded conditions: simiiformes, in vivo, 1 mg/kg
For each record, write down the corresponding AUG.

Lookup: Answer with the recorded AUG for the molecule listed here: Cc1cccc(C)c1C(=O)N1CCC(C)(N2CCC(N(Cc3ccccc3)c3ccccc3)CC2)CC1
Found: 33 ng·h/mL

Lookup: Answer with the recorded AUG for the molecule listed here: Cc1nc(-c2ccccc2)nc(C)c1C(=O)N1CCC(C)(N2CCC(N(c3ccccc3)c3ccccc3)CC2)CC1
Found: 115 ng/mL/h

Lookup: Answer with the recorded AUG for the molecule listed here: Cc1nc[n+]([O-])c(C)c1C(=O)N1CCC(C)(N2CCC(N(c3ccccc3)c3ccccc3)CC2)CC1
Found: 1550 ng·h/mL
